Experiment: Mouse in vivo oral and iv PK
Settings: male, whole blood, CD1 mice, po, dose level 5 mg/kg, read-out: po AUClast
EXPERIMENTAL_READOUT: AUC(0-t) (ng·h/mL)
One number for each entry, in ng·h/mL.

I would be grateful if you could share the reported AUC(0-t) for CON(C)C(=O)/C=C/C=C(\C)[C@@H]1C/C=C/C=C/[C@H](O)[C@H](C)[C@@H](O)[C@@H](CCC(C)=O)C(=O)N[C@@H](C(C)C)C(=O)N[C@@H](Cc2cc(O)cc(F)c2)C(=O)N2CCCC(N2)C(=O)O1 (stereo partly shown) [Compound 23] .
2760
